Recorded IC50 for compounds tested on Fibroblast growth factor receptor 1 (Homo sapiens, UniProt P11362), drawn from a number of studies.
Sequence (P11362 whole entry): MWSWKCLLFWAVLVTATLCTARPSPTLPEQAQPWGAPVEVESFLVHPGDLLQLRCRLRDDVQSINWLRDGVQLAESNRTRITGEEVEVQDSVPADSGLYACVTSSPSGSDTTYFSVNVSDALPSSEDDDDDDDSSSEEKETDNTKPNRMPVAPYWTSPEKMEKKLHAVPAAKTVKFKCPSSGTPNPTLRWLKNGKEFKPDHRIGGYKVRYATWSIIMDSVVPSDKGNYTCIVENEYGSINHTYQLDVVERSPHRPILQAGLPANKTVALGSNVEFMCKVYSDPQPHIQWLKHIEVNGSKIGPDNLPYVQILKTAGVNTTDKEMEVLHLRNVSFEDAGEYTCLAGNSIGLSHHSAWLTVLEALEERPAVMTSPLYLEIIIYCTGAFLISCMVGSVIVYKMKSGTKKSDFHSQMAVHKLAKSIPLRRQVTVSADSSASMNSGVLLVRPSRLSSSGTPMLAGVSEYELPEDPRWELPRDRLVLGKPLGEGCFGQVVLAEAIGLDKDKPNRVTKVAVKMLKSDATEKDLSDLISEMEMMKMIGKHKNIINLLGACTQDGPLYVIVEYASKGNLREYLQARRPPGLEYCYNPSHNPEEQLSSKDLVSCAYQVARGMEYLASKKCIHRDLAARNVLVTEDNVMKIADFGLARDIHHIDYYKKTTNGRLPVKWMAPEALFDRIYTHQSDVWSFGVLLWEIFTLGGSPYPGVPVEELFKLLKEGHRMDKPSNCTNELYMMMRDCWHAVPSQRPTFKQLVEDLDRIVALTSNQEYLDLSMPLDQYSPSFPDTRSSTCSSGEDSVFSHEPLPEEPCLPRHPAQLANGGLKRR

| compound | endpoint-unit | lt-gt-eq | IC50 |
| --- | --- | --- | --- |
| C[C@H](Nc1nc(Nc2cn(C)cn2)c2cc[nH]c2n1)c1ncc(F)cn1 | nM | = | 50 |
| COc1cc(NC(=O)Nc2ccncc2)cc(-c2cccnc2)c1OC | nM | = | 272 |
| COc1c(O)ccc2c1ncn2-c1ccccc1 | nM | > | 50000 |
| O=C(c1ccc[nH]1)N1N=C(c2cccnc2)CC1c1ccccc1O (stereo unspecified) | nM | > | 10000 |
| COCCOc1cc2nccc(Nc3cc(O)c(Cl)cc3F)c2cc1OC | nM | = | 1400 |
| Cn1ncc2c(N)c(-c3nc4ccccc4[nH]3)c(O)nc21 | nM | = | 3000 |

* * *

pIC50: −log10 of the molar value.
Recorded pIC50 for compounds tested on Fibroblast growth factor receptor 1 (Homo sapiens, UniProt P11362), drawn from a number of studies.
Kind request: treat 6 as inclusive, so pIC50 at 6 or higher is rule met, anything lower is rule not met.

| compound-structure | target-or-system | answer-label |
| --- | --- | --- |
| CCN(CC)CCNc1ncc2cc(-c3c(Cl)cccc3Cl)c(NC(=O)NC(C)(C)C)nc2n1 | Fibroblast growth factor receptor 1 (Homo sapiens, UniProt P11362) | rule not met |
| CC(C)NC(=O)Nc1nc2nc(NCCCN3CCN(C)CC3)ncc2cc1-c1c(Cl)cccc1Cl | Fibroblast growth factor receptor 1 (Homo sapiens, UniProt P11362) | rule met |
| Cn1cc(NC(=O)c2ccc(NS(=O)(=O)c3ccccc3)cc2)cn1 | Fibroblast growth factor receptor 1 (Homo sapiens, UniProt P11362) | rule not met |
| C=CCc1c(O)ccc2c1ncn2-c1ccccc1 | Fibroblast growth factor receptor 1 (Homo sapiens, UniProt P11362) | rule not met |
| Fc1ccc(Nc2ncnc3sc4c(c23)CCCC4)cc1 | Fibroblast growth factor receptor 1 (Homo sapiens, UniProt P11362) | rule not met |
| COc1cc2c(Nc3c(F)cc(Cl)cc3F)ncnc2cc1OCC1CCN(C)CC1 | Fibroblast growth factor receptor 1 (Homo sapiens, UniProt P11362) | rule not met |
| Cc1[nH]c(/C=C2\C(=O)Nc3ccc(Br)cc32)c(C)c1CCC(=O)O | Fibroblast growth factor receptor 1 (Homo sapiens, UniProt P11362) | rule not met |
| C=CC(=O)Nc1ccc(-c2ccc(NC(=O)Nc3cccc(Cl)c3)cc2)cn1 | Fibroblast growth factor receptor 1 (Homo sapiens, UniProt P11362) | rule met |
| Nc1c(C(=O)c2cc3ccccc3[nH]2)cnn1-c1ccc2[nH]c(=O)[nH]c2c1 | Fibroblast growth factor receptor 1 (Homo sapiens, UniProt P11362) | rule not met |

* * *

Recorded IC50 for compounds tested on Fibroblast growth factor receptor 1 (Homo sapiens), drawn from a number of studies.
test-readout: IC50 (µM)

| compound-structure | lt-gt-eq | measured |
| --- | --- | --- |
| COc1cc2ncnc(Nc3ccc(F)c(Cl)c3)c2cc1OC | > | 100 |
| Cc1ccc(-c2csc3ncnc(Nc4ccc(C(=O)O)cc4)c23)cc1 | > | 30 |
| CCN(CC)C(=O)c1ccc(Nc2ncc3cc(-c4c(Cl)cccc4Cl)c(=O)n(C)c3n2)cc1 | = | 0.18 |
| O=C(Nc1cnn(-c2ccccc2)c1)c1cccc(NS(=O)(=O)c2ccccc2)c1 | = | 18.2 |
| CC(=O)N1CCC(c2cc3c(N[C@H](C)c4cc(N)cc(C(F)(F)F)c4)nc(C)nc3n(C)c2=O)CC1 | > | 10 |
